Provide the recorded ED50 for the entries that follow.
biological target: Serotonin (5-HT) receptor (Rattus norvegicus) (UniProt P35563+P35365+P32305+P31388+Q9JJ16+P28564+P30994+Q62758+P08909+P14842+P30940+P35364+P19327+P28565); assay: Evaluated for receptor mediated feedback inhibition of 5-HTP formation in limbic tissue of rat brain when administered subcutaneously; type: functional, tissue-based; conditions: Limbic system

# get_value(readout='ED50', item= CCCN(CCC)C1CC1c1ccc(O)c(O)c1 (stereo unspecified) )
> 50 µmol/kg

What about CCCCN(CCCC)C1CC1c1cccc(O)c1 (stereo unspecified) ?
> 50 µmol/kg

What about CCCCN(CCCC)C1CC1c1ccccc1O (stereo unspecified) ?
> 50 µmol/kg

Can you handle CCCN(CCC)C1CC1c1ccc(O)cc1 (stereo unspecified) next?
> 50 µmol/kg

Now consider CCCN(CCC)C1CC1c1ccccc1O (single isomer, unassigned; (+)) and answer again.
> 50 µmol/kg

Another molecule: CCCN(CCC)C1CC1c1cccc(O)c1 (stereo in doubt; (+)-18)
> 50 µmol/kg

====

target: Serotonin (5-HT) receptor (Rattus norvegicus) (UniProt P35563+P35365+P32305+P31388+Q9JJ16+P28564+P30994+Q62758+P08909+P14842+P30940+P35364+P19327+P28565); experiment: Evaluated for receptor mediated feedback inhibition of 5-HTP formation in hemisphere of rat brain when administered subcutaneously; format: functional
Would you mind telling me the reported ED50 of each entry?

Looking for the measured ED50 of CCCN(CCC)C1CC1c1ccc(O)c(O)c1 (stereo unspecified) , can you help?
> 50 µmol/kg

Entry to check: CCCN(CCC)C1CC1c1ccc(O)cc1 (stereo unspecified)
> 50 µmol/kg

And the next one, CCCCN(CCCC)C1CC1c1ccccc1O (stereo unspecified) ?
> 50 µmol/kg

Also need CCCN(CCC)C1CC1c1ccccc1O (single isomer, unassigned; (+)) , thanks.
> 50 µmol/kg

And for CCCCN(CCCC)C1CC1c1cccc(O)c1 (stereo unspecified) ?
> 50 µmol/kg

Now consider CCCN(CCC)C1CC1c1cccc(O)c1 (stereo in doubt; (+)-18) and answer again.
> 50 µmol/kg
